Numbers sourced from patent US20120053118A1.

Parameter pIC50: see the listing below.
molecular target: amylin receptors (membrane-bound, rat basal forebrain membranes containing the nucleus accumbens and surrounding regions) (rat); experiment: competition with 125I Bolton-Hunter rat amylin on rat basal forebrain membranes
Bridge positions count the residues as written; N and C are the ends. Ends that are not written are not given here.
Entry type: numeric. Quantity: pIC50, the -log10 of concentration in molar units.

Worked cases, pIC50 given:
Measured pIC50, CNTATCATQRLANFLVRSSNNFGPILPPTNVGSNTY [des-^1Lys^18Arg^25, 28, 29Pro-h-Amylin] : 10.68

Measured pIC50, CNTATCATQRLANFLVRSSNNFGPILPSTNVGSNTY [des-^1Lys^18Arg^25, 28Pro-h-Amylin] : 10.09

Measured pIC50, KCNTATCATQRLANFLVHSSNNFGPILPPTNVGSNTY (disulfide 2-7; not fully specified (C-terminus)) [^25, 28, 29Pro-h-Amylin] : 11.00

Measured pIC50, CNTATCATQRLANFLVHSSNNFGPILPSTNVGSNTY [des-^1Lys^25, 28Pro-h-Amylin] : 10.07

Measured pIC50, KDNTATKATQRLANFLVHSSNNFGAILSSTNVGSNTY (lactam 2-7; not fully specified (C-terminus)) [^2, 7Cyclo-[^2Asp,^7Lys]-h-Amylin] : 9.51

---
Measured pIC50, KCNTATCATQRLANFLVRSSNNFGPILPPTNVGSNTY [^18Arg^25, 28, 29Pro-h-Amylin] : 10.68

Measured pIC50, KCNTATCATQRLANFLVRSSNNFGPILPSTNVGSNTY [^18Arg^25, 28Pro-h-Amylin] : 10.49

Measured pIC50, KCNTATCATQRLANFLVHSSNNFGPVLPPTNVGSNTY [^25Pro^26Val^28, 29Pro-h-Amylin] : 10.74

Measured pIC50, KCNTATCATQRLANFLVHSSNNFGPILPSTNVGSNTY [^25, 28Pro-h-Amylin] : 10.59

Measured pIC50, CNTATCATQRLANFLVHSSNNFGPILPPTNVGSNTY [des-^1Lys^25, 28, 29Pro-h-Amylin] : 10.85
